Reference source for all entries: patent US12122778B2

- Assay System: PKR(R510Q) (Homo sapiens, UniProt P30613, R510Q)
- Sequence (P30613 whole entry R510Q): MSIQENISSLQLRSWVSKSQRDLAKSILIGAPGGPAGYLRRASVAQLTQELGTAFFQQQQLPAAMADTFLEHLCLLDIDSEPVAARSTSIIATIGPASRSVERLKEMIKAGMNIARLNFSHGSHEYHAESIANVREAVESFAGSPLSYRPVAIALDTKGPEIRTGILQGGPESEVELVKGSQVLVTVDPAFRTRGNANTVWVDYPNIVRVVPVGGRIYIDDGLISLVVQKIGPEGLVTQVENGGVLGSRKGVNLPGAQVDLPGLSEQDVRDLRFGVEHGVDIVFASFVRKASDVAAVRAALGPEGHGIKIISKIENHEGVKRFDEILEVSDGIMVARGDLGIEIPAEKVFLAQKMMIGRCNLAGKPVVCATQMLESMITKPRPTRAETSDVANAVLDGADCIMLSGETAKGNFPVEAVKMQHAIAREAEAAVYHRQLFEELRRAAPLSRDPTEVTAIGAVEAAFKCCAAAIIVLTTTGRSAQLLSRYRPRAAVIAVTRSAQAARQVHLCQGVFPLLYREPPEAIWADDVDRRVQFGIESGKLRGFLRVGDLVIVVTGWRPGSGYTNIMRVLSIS
- Experiment Summary: Luminescence Biochemical Assay (Kinase Glo Plus), PKR R510Q mutant
- Cond: without FBP, 1.54 μM compound, read-out: AC50 LUM KGP woFBP % Fold@1.54 μM mean

[
  {
    "Compound": "O=C([C@H](O)c1ccc2c(c1)CNCC2)N1CC2=C(C1)CN(S(=O)(=O)c1ccc(OC(F)F)cc1)C2 (single isomer, unassigned)",
    "activation at 1.54 µM": "250 to 50000%"
  },
  {
    "Compound": "Cc1cc(CNC(=O)N2CC3=C(C2)CN(S(=O)(=O)c2ccc4ncsc4c2)C3)on1",
    "activation at 1.54 µM": "75 to 250%"
  },
  {
    "Compound": "O=C([C@H](O)c1ccccc1)N1CC2=C(C1)CN(S(=O)(=O)c1ccc(C(F)(F)F)nc1)C2",
    "activation at 1.54 µM": "75 to 250%"
  },
  {
    "Compound": "Cc1ccc(CC(=O)N2CC3=C(C2)CN(S(=O)(=O)c2ccc(OC(F)F)cc2)C3)cn1",
    "activation at 1.54 µM": "250 to 50000%"
  },
  {
    "Compound": "O=C(C(O)c1ccc(C(F)(F)F)cc1)N1CC2=C(C1)CN(S(=O)(=O)c1ccc(OC(F)F)cc1)C2 (stereo not shown)",
    "activation at 1.54 µM": "75 to 250%"
  },
  {
    "Compound": "O=C(NCc1ccccc1F)N1CC2=C(C1)CN(S(=O)(=O)c1ccc(C(F)(F)F)nc1)C2",
    "activation at 1.54 µM": "75 to 250%"
  },
  {
    "Compound": "O=C([C@H](O)c1ccc(F)cc1)N1CC2=C(C1)CN(S(=O)(=O)c1ccc(OC(F)F)cc1)C2",
    "activation at 1.54 µM": "250 to 50000%"
  }
]
